Record set: IC50 | Proto-oncogene tyrosine-protein kinase receptor Ret (Homo sapiens) | literature, multiple sources.

Previously resolved entries follow.
{"line-notation": "Oc1ccc(F)c(Cc2c[nH]c3ncc(Br)cc23)c1F", "result": "≤ 10 µM"}
{"line-notation": "COCCOCCOCCNC(=O)c1c(C)[nH]c(/C=C2\\C(=O)Nc3ccc(F)cc32)c1C", "result": "0.23 µM"}

Attention now turns to another entry.
Challenge: Print Proto-oncogene tyrosine-protein kinase receptor Ret (Homo sapiens) IC50 for COC1(C(=O)N[C@@H]2CCN(c3ccccn3)C2)CCN(c2nc(C)cc(Nc3cc(C)[nH]n3)n2)CC1 .
Response given: 0.01 to 0.1 µM

###

Record set: pIC50 | Proto-oncogene tyrosine-protein kinase receptor Ret (Homo sapiens, UniProt P07949) | literature, multiple sources.
pIC50: −log10 of the molar value.

{"line-notation": "Cc1cc(Nc2cc(C)[nH]n2)nc([C@@]2(O)CC[C@](C)(C(=O)N[C@@H](C)c3ccc(-n4cc(F)cn4)nc3)C2)c1", "pIC50": "> 8.00"}

Challenge: Return pIC50 (reported value) for this molecule: CC1(O)CC2(CN(c3cc(-c4ccc(N5CCC(C)(NC(=O)c6ncccc6Cl)CC5)nc4)c4c(C#N)cnn4c3)C2)C1
Response given: 8.96

Challenge: Return pIC50 (reported value) for this molecule: O=C(Nc1ccc(F)c(C(=O)c2c[nH]c3ncc(-c4cccnc4)cc23)c1F)OCc1ccccc1
Response given: ≥ 5.00

###

Record set: IC50 | Proto-oncogene tyrosine-protein kinase receptor Ret (Homo sapiens, UniProt P07949) | literature, multiple sources.

Previously resolved entries follow.
{"line-notation": "CCOc1cc(-c2ccc(NC(=O)Nc3ccc(CN(C)C)c(C(F)(F)F)c3)c(F)c2)c[nH]c1=O", "IC50": "< 0.1 µM"}
{"line-notation": "Cn1cc(-c2cc(-c3ccc(N4C[C@@H]5[C@@H](CNC(=O)c6ncc(F)cc6Cl)[C@@H]5C4)nc3)c3c(C#N)cnn3c2)cn1", "IC50": "≤ 0.01 µM"}
{"line-notation": "O=C(c1cc(O)ccc1F)c1c[nH]c2ncccc12", "IC50": "≤ 10 µM"}
{"line-notation": "COCc1cccc2[nH]c(-c3n[nH]c4ncc(-c5cncc(C=NO)c5)cc34)nc12", "IC50": "> 100 µM"}
{"line-notation": "COCc1cccc2[nH]c(-c3n[nH]c4ncc(-c5ccc(S(N)(=O)=O)cc5)cc34)nc12", "IC50": "> 10 µM"}
{"line-notation": "Nc1cccc(-c2ccnc3[nH]cc(C(=O)c4cc(F)ccc4F)c23)c1", "IC50": "≤ 10 µM"}
{"line-notation": "CCOc1cc(-c2ccc(NC(=O)Nc3ccc(OC4(C)COC4)c(C(F)(F)F)c3)cn2)c[nH]c1=O", "IC50": "< 0.1 µM"}

Challenge: Print Proto-oncogene tyrosine-protein kinase receptor Ret (Homo sapiens, UniProt P07949) IC50 for CC(=O)Nc1cccc(-c2cnc3[nH]ccc3c2)c1 .
Response given: ≤ 10 µM

###

Record set: IC50 | Proto-oncogene tyrosine-protein kinase receptor Ret (Homo sapiens, UniProt P07949) | literature, multiple sources.

Previously resolved entries follow.
{"line-notation": "Cn1cc(-c2cc(-c3ccc(N4C[C@@H]5[C@H](C4)[C@H]5NC(=O)c4c(F)cccc4Cl)nc3)c3c(C#N)cnn3c2)cn1", "IC50": "≤ 10 nM"}
{"line-notation": "CC(C)(O)COc1cc(-c2cnc(N3C[C@@H]4C[C@@](C)(NC(=O)c5c(F)cccc5Cl)C[C@@H]4C3)cn2)c2c(C#N)cnn2c1", "IC50": "≤ 10 nM"}
{"line-notation": "Cc1cc(Nc2cc(C)[nH]n2)nc(-c2ccc(C(=O)N[C@H](C)c3ccccc3)nc2)n1", "IC50": "> 100 nM"}
{"line-notation": "COc1ccc([C@H](C)NC(=O)C2(OC)CCN(c3nc(C)cc(Nc4cc(C)[nH]n4)n3)CC2)cc1", "IC50": "10 to 100 nM"}
{"line-notation": "Cn1cc(-c2cc(-c3ccc(N4C[C@@H]5[C@H](C4)[C@H]5NC(=O)c4ncc(F)cc4Cl)nc3)c3c(C#N)cnn3c2)cn1", "IC50": "≤ 10 nM"}
{"line-notation": "COc1cc2ncnc(Oc3ccc(NC(=O)NC4CCC4)cc3)c2cc1OC", "IC50": "37 nM"}

Attention now turns to another entry.
Challenge: Print Proto-oncogene tyrosine-protein kinase receptor Ret (Homo sapiens, UniProt P07949) IC50 for CNc1ncc2c(n1)N1CCN=C1C(c1cc(NC(=O)C3(C(=O)Nc4ccc(F)cc4)CC3)ccc1F)=C2 .
Response given: 100 to 10000 nM

###

pIC50: −log10 of the molar value.
Record set: pIC50 | Proto-oncogene tyrosine-protein kinase receptor Ret (Homo sapiens, UniProt P07949) | literature, multiple sources.

Previously resolved entries follow.
{"compound": "Cc1cc(Nc2cc(C)[nH]n2)nc(N2CCC(F)(C(=O)N[C@@H](C)c3ccc(-n4cc(F)cn4)nc3)CC2)c1", "result": "> 8.00"}
{"compound": "CCOc1cc(-c2ccc(N3C4CC5CC3CC(NC(=O)c3ncccc3Cl)(C5)C4)nc2)c2c(C#N)cnn2c1", "result": "≥ 8.00"}
{"compound": "COc1cccc(Cc2c[nH]c3nccc(Br)c23)c1", "result": "≥ 5.00"}
{"compound": "COc1ccc(C(=O)c2c[nH]c3ncc(-c4cccs4)cc23)cc1", "result": "≥ 5.00"}
{"compound": "Cn1cc(-c2cc(-c3ccc(N4C[C@@H]5C[C@@](C)(NC(=O)c6c(F)cccc6Cl)C[C@@H]5C4)nc3)c3c(C#N)cnn3c2)cn1", "result": "7.30 to 8.00"}
{"compound": "c1cc(Cc2c[nH]c3ncc(-c4ccsc4)cc23)cc(OCCOC2CCCCO2)c1 (stereo not shown)", "result": "≥ 5.00"}

Attention now turns to another entry.
Challenge: Print Proto-oncogene tyrosine-protein kinase receptor Ret (Homo sapiens, UniProt P07949) pIC50 for CCOc1cc(-c2ncc(NC(=O)Nc3cc(-n4cnc(C)c4)cc(C(F)(F)F)c3)c(CC)n2)c[nH]c1=O .
Response given: > 7.00

###

Record set: IC50 | UniProt:P07949 | literature, multiple sources.

Previously resolved entries follow.
{"line-notation": "CN1CCN(c2ccc(-c3cnn4c(N)c(-c5cccc(O)c5)cnc34)cc2)CC1", "target-or-test-system": "UniProt:P07949", "result": "< 10000 nM"}
{"line-notation": "Cc1cc(Nc2cc(C)[nH]n2)nc([C@]2(O)CC[C@@H](C(=O)NCc3ccc(-n4cccn4)nc3)C(C)(C)C2)c1", "target-or-test-system": "UniProt:P07949", "result": "< 10 nM"}
{"line-notation": "CO[C@]1(C(=O)N[C@@H](C)c2ccc(-n3cc(F)cn3)nc2)CC[C@@](O)(c2cc(C)cc(Nc3cc(C)[nH]n3)n2)CC1", "target-or-test-system": "UniProt:P07949", "result": "< 10 nM"}

Challenge: Return IC50 (reported value) for this compound: CN1CCN(Cc2cc(NC(=O)Nc3ccc(Oc4cc(N)ncn4)cc3)cc(C(F)(F)F)c2)CC1
Response given: 260 nM

Challenge: Return IC50 (reported value) for this compound: Cc1cc(Nc2cc(C)[nH]n2)nc(N2CCC(O)(C(=O)NCc3ccccc3)CC2)n1
Response given: > 100 nM

Challenge: Return IC50 (reported value) for this compound: Cc1cc(C(=O)c2c[nH]c3ncc(-c4ccsc4)cc23)no1
Response given: ≤ 10000 nM

Challenge: Return IC50 (reported value) for this compound: CCOc1cc(-c2ccc(NC(=O)Nc3ccc(Cc4cnn(C)c4)c(C(F)(F)F)c3)c(F)c2)c[nH]c1=O
Response given: < 100 nM

Challenge: Return IC50 (reported value) for this compound: O=C(c1cccc(F)c1)c1c[nH]c2ncc(Br)cc12
Response given: ≤ 10000 nM

Challenge: Return IC50 (reported value) for this compound: CC(=O)Nc1cccc(-c2ccnc3[nH]cc(C(=O)c4cc(F)ccc4C)c23)c1
Response given: ≤ 10000 nM

Challenge: Return IC50 (reported value) for this compound: O=C(c1cccc(O)c1)c1c[nH]c2ncccc12
Response given: ≤ 10000 nM

Challenge: Return IC50 (reported value) for this compound: COc1ccc(CNC(=O)C2(O)CCN(c3nc(C)cc(Nc4cc(C)[nH]n4)n3)CC2)cc1
Response given: > 100 nM

Challenge: Return IC50 (reported value) for this compound: Cc1cc(Nc2cc(C)[nH]n2)nc([C@H]2C[C@](C)(C(=O)N[C@@H](C)c3ccc(-n4cc(F)cn4)nc3)C2)n1
Response given: < 1 nM

Challenge: Return IC50 (reported value) for this compound: CCOc1cc(-c2cc(F)c(NC(=O)Nc3ccc(OC4(C)COC4)c(C(F)(F)F)c3)c(F)c2)c[nH]c1=O
Response given: < 100 nM
